Values compiled from the supplement of paper PMC11246515.

- ASSAY: total protein half-life in vivo (active degradation + dilution); higher = more stable protein
- CONDITIONS_USED: E. coli NCM3722 delta-clpP delta-lon delta-hslV; growth: N-lim chemostat; doubling time 6 h
QUANTITY_NAME: total protein half-life in vivo (h)

| SEQUENCE_CODE | NUMBER |
| --- | --- |
| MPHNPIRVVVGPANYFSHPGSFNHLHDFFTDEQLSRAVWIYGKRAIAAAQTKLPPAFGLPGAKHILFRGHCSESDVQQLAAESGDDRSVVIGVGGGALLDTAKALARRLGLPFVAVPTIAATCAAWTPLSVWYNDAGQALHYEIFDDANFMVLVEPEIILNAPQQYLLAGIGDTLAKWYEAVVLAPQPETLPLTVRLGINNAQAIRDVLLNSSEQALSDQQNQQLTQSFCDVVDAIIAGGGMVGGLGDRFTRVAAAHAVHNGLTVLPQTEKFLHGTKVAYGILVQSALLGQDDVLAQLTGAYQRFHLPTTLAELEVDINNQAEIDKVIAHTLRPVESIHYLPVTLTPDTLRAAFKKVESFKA | 4.77 |

---

- ASSAY: total protein half-life in vivo (active degradation + dilution); higher = more stable protein
- CONDITIONS_USED: E. coli NCM3722 delta-clpP; growth: N-lim chemostat; doubling time 6 h
// total protein half-life in vivo lookup, one value per entry

| SEQUENCE_CODE | UNIT_ABBREVIATION | total protein half-life in vivo |
| --- | --- | --- |
| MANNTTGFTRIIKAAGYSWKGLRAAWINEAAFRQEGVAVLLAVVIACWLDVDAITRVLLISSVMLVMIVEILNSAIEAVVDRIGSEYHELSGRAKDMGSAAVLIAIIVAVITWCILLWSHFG [P0ABN1] | h | 6.7 |
| MIKKIFALPVIEQISPVLSRRKLDELDLIVVDHPQVKASFALQGAHLLSWKPAGEEEVLWLSNNTPFKNGVAIRGGVPVCWPWFGPAAQQGLPAHGFARNLPWTLKSHHEDADGVALTFELTQSEETKKFWPHDFTLLAHFRVGKTCEIDLESHGEFETTSALHTYFNVGDIAKVSVSGLGDRFIDKVNDAKENVLTDGIQTFPDRTDRVYLNPQDCSVINDEALNRIIAVGHQHHLNVVGWNPGPALSISMGDMPDDGYKTFVCVETAYASETQKVTKEKPAHLAQSIRVAKR | h | 5.24 |
| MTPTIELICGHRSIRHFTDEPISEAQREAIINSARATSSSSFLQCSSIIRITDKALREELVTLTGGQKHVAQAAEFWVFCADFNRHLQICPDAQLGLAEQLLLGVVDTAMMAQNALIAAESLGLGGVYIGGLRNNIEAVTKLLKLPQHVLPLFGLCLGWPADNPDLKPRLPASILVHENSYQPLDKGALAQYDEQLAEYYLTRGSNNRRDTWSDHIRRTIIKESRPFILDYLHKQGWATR | h | 3.94 |
| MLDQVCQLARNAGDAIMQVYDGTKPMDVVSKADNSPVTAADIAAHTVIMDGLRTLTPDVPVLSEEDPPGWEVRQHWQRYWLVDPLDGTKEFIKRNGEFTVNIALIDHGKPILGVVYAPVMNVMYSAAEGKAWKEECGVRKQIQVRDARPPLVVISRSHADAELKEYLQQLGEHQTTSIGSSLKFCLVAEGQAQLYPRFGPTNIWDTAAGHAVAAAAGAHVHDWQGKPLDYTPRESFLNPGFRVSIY | h | 4.77 |
| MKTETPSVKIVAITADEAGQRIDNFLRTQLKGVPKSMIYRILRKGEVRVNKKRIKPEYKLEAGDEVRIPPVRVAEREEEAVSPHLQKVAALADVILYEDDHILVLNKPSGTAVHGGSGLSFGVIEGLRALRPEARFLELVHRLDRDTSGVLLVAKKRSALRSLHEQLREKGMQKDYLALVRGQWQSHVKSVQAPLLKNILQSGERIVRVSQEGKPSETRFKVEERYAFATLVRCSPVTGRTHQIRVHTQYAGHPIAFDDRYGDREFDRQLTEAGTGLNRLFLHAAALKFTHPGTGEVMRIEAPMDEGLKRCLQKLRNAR [P0AA39] | h | 5.2 |
| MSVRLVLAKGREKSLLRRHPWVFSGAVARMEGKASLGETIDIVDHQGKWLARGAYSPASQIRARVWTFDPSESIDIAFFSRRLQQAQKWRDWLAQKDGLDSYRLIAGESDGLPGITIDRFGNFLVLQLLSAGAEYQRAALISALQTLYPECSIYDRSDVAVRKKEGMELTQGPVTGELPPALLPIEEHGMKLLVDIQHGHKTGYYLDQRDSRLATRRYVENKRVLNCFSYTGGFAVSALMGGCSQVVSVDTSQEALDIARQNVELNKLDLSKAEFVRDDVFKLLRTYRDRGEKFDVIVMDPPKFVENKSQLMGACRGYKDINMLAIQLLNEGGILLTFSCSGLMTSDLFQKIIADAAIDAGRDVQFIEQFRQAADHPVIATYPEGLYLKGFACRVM | h | 5.51 |
| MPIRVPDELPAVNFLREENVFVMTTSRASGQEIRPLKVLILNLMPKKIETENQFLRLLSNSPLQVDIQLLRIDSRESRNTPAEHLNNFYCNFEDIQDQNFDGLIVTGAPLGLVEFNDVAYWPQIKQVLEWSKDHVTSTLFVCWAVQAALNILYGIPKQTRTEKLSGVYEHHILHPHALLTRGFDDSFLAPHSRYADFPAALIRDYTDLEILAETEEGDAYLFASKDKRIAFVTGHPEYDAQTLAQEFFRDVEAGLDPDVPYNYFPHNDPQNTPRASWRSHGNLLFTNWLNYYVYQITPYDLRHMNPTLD | h | 1.85 |
| MAAVNLRHIEIFHAVMTAGSLTEAAHLLHTSQPTVSRELARFEKVIGLKLFERVRGRLHPTVQGLRLFEEVQRSWYGLDRIVSAAESLREFRQGELSIACLPVFSQSFLPQLLQPFLARYPDVSLNIVPQESPLLEEWLSAQRHDLGLTETLHTPAGTERTELLSLDEVCVLPPGHPLAVKKVLTPDDFQGENYISLSRTDSYRQLLDQLFTEHQVKRRMIVETHSAASVCAMVRAGVGISVVNPLTALDYAASGLVVRRFSIAVPFTVSLIRPLHRPSSALVQAFSGHLQAGLPKLVTSLDAILSSATTA | h | 4.89 |
| MRKLTALFVASTLALGAANLAHAADTTTAAPADAKPMMHHKGKFGPHQDMMFKDLNLTDAQKQQIREIMKGQRDQMKRPPLEERRAMHDIIASDTFDKVKAEAQIAKMEEQRKANMLAHMETQNKIYNILTPEQKKQFNANFEKRLTERPAAKGKMPATAE | h | 3.6 |
| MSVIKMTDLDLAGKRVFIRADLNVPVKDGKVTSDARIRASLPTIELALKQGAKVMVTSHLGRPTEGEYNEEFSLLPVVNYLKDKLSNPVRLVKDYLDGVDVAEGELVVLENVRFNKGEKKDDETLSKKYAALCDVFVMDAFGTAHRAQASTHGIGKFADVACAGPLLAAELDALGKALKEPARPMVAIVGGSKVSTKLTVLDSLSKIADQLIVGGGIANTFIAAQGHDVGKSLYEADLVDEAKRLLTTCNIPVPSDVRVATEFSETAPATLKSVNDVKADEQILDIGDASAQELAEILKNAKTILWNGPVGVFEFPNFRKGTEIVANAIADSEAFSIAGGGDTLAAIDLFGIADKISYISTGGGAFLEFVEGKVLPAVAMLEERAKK [P0A799] | h | 5.27 |

---

- ASSAY: total protein half-life in vivo (active degradation + dilution); higher = more stable protein
- CONDITIONS_USED: wild type E. coli NCM3722; growth: P-lim chemostat; doubling time 12 h

| SEQUENCE_CODE | total protein half-life in vivo / h |
| --- | --- |
| MAINFSPKVGEILECNFGNYPVSQNGPFSTTYYDGRIPPEMIKNRLVVVLNGKINGNACIVVPLSTTRDQDKLKRGMHVEIASNVINDLQFFDQQIRWAKADLVQQVSRNRLNRARTYRGYLNQCLPHELVADIQRAVIKSINAISLIN | 8.56 |
| MIEFSHVSKLFGAQKAVNDLNLNFQEGSFSVLIGTSGSGKSTTLKMINRLVEHDSGEIRFAGEEIRSLPVLELRRRMGYAIQSIGLFPHWSVAQNIATVPQLQKWSRARIDDRIDELMALLGLESNLRERYPHQLSGGQQQRVGVARALAADPQVLLMDEPFGALDPVTRGALQQEMTRIHRLLGRTIVLVTHDIDEALRLAEHLVLMDHGEVVQQGNPLTMLTRPANDFVRQFFGRSELGVRLLSLRSVADYVRREERADGEALAEEMTLRDALSLFVARGCEVLPVVNMQGQPCGTLHFQDLLVEA | 8.84 |
| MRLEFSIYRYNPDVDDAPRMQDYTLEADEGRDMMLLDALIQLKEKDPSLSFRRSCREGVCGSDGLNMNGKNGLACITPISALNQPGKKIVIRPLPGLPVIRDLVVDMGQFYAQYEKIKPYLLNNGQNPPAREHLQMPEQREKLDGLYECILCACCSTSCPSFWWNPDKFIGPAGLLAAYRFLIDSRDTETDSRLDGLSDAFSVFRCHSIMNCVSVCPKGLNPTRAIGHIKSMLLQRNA | 10.5 |
| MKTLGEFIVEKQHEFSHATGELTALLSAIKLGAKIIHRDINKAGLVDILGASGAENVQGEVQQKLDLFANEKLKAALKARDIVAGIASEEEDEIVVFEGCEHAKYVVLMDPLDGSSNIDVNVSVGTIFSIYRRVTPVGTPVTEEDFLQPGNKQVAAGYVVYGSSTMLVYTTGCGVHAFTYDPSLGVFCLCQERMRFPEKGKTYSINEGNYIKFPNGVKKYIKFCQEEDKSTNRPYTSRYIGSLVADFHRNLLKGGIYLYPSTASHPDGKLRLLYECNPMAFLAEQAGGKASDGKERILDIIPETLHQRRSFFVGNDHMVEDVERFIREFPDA [P0A993] | 10.6 |
| MINYGVVGVGYFGAELARFMNMHDNAKITCVYDPENGENIARELQCINMSSLDALVSSKLVDCVIVATPNYLHKEPVIKAAKNKKHVFCEKPIALSYEDCVDMVKACKEAGVTFMAGHIMNFFNGVQYARKLIKEGVIGEILSCHTKRNGWENKQERLSWKKMKEQSGGHLYHHIHELDCVQHLLGEIPETVTMIGGNLAHSGPGFGNEDDMLFMTLEFPSGKLATLEWGSAFNWPEHYVIINGTKGSIKIDMQETAGSLRIGGQTKHFLVHETQEEDDDRRKGNMTSEMDGAIAYGHPGKKTPLWLASLIRKETLFLHNILCGAKPEEDYIDLLNGEAAMSAIATADAATLSRSQDRKVKISEIIKHTSVM | 13.4 |
